# study.system: CDK12–cyclin K (Homo sapiens)
# Sequence (Q9NYV4 713-1052): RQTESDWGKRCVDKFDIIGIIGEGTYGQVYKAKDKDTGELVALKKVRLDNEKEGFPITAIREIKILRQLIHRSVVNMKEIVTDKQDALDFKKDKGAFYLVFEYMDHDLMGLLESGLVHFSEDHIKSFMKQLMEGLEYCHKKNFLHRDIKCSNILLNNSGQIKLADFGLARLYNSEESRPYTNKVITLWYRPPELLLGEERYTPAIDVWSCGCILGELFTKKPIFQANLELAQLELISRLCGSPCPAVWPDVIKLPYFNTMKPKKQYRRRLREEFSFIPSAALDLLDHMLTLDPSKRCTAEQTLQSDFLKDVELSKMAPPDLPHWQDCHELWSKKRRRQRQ
# Sequence (O75909 1-267 partner limits assumed): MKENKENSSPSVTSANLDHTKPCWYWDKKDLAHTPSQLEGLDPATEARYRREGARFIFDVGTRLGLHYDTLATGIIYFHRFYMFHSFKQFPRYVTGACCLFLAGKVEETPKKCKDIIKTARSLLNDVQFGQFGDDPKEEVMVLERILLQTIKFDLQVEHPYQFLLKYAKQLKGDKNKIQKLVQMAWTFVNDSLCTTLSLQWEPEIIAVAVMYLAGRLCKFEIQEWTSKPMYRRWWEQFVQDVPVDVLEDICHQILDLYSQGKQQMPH
# test.protocol: Lanthascreen kinase binding assay, CDK12
# condition.info: Supplementary Table 2; read-out: Lanthascreen IC50 [nM] CDK12
This listing pairs compounds with measured IC50.
Write down the numeric answer in nM and omit the unit.

Look over these answered cases.
* Cc1cc2nc(CNc3nc(N4CCN(C)CC4)nc4c(Br)cnn34)[nH]c2cc1C [DS73, reference compound] | 25
* CC(C)n1cnc2c(NCc3ccc(-c4ccccn4)cc3)nc(N3CCOCC3)nc21 | 163

Now, please, on to the next compound.
// IC50 lookup, compound = `CC[C@H](CO)Nc1nc(NCc2nc3cc(Cl)c(Cl)cc3[nH]2)c2ncn(C(C)C)c2n1` , result: 117

----------
This listing pairs compounds with measured IC50.
# study.system: CDK2–cyclin A (Homo sapiens, UniProt P24941)
# Construct: purchased Thermo Fisher
# test.protocol: Lanthascreen kinase binding assay, CDK2
# condition.info: Supplementary Table 2; read-out: Lanthascreen IC50 [nM] CDK2

- Fc1ccc2[nH]c(CNc3nc(N4CCOCC4)nc4c(Br)cnn34)nc2c1F: 1060 nM
- O=C(CCn1cnc2ccccc2c1=O)Nc1ccc(Br)cn1: > 10000 nM
- Cc1cccc(Nc2nc(CC(=O)Nc3ncc(C)s3)cs2)n1: > 10000 nM
- COc1ccc(C)cc1N1C[C@@H](C(=O)Nc2nc3ccccc3[nH]2)CC1=O: > 10000 nM
- O=C(CSc1nnc2c(n1)[nH]c1ccccc12)Nc1ccc(Cl)cn1: > 10000 nM

// IC50 lookup, compound = `CC(C)n1cnc2c(NCc3ccc(-c4ccccn4)cc3)nc(N3CCOCC3)nc21` , result: 239 nM

// IC50 lookup, compound = `C[C@H](C(=O)Nc1nc2ccccc2[nH]1)N1Cc2ccccc2C1=O` , result: > 10000 nM

// IC50 lookup, compound = `CN1CCN(c2nc(NCc3nc4c(F)c(F)ccc4[nH]3)n3ncc(Br)c3n2)CC1` , result: > 10000 nM

// IC50 lookup, compound = `CC[C@H](CO)Nc1nc(NCc2nc3c(F)c(F)ccc3[nH]2)c2ncn(C(C)C)c2n1` , result: 4960 nM

----------
# Tested on: cyclin K–eGFP degradation reporter
# test.protocol: Cyclin K reporter stability analysis (dual-color cyclin K–eGFP reporter)
# Format: cell-based, human
# condition.info: source data sheet correlations; read-out: DC50
Sorting guide: entries reporting DC50 beneath 300 nM go in the met pile, the rest go in the not met pile.

Quick check: DC50 of `CC(C)n1cnc2c(NCc3nc4cc(Cl)c(Cl)cc4[nH]3)nc(N3CCOCC3)nc21` under 300 nM? met

Quick check: DC50 of `CC[C@H](CO)Nc1nc(NCCCc2ccc(C)c(C)c2)c2ncn(C(C)C)c2n1` under 300 nM? met

Quick check: DC50 of `O=C(CSc1nnc2c(n1)[nH]c1ccccc12)Nc1ccc(Cl)cn1` under 300 nM? not met

----------
This listing pairs molecules with measured EC50.
# study.system: CDK12–cyclin K and DDB1 (Homo sapiens, UniProt Q16531+Q9NYV4, K965R)
# Construct: His6–CDK12 (a.a. 713–1,052); full-length or beta-propeller B domain deletion (ΔBPB: a.a. 396–705 deleted) constructs of His6–DDB1ΔBPB, StrepII–Avi–DDB1, or His6–Spy–DDB1; made in house; host or cells: Trichoplusia ni High Five insect cells (baculovirus)
# Sequence (Q9NYV4 713-1052 K965R): as the sequence (Q9NYV4 713-1052) above, with K253R counted along it
# Sequence (O75909 1-267 partner): as the sequence (O75909 1-267 partner limits assumed) above
# Sequence (Q16531 whole entry): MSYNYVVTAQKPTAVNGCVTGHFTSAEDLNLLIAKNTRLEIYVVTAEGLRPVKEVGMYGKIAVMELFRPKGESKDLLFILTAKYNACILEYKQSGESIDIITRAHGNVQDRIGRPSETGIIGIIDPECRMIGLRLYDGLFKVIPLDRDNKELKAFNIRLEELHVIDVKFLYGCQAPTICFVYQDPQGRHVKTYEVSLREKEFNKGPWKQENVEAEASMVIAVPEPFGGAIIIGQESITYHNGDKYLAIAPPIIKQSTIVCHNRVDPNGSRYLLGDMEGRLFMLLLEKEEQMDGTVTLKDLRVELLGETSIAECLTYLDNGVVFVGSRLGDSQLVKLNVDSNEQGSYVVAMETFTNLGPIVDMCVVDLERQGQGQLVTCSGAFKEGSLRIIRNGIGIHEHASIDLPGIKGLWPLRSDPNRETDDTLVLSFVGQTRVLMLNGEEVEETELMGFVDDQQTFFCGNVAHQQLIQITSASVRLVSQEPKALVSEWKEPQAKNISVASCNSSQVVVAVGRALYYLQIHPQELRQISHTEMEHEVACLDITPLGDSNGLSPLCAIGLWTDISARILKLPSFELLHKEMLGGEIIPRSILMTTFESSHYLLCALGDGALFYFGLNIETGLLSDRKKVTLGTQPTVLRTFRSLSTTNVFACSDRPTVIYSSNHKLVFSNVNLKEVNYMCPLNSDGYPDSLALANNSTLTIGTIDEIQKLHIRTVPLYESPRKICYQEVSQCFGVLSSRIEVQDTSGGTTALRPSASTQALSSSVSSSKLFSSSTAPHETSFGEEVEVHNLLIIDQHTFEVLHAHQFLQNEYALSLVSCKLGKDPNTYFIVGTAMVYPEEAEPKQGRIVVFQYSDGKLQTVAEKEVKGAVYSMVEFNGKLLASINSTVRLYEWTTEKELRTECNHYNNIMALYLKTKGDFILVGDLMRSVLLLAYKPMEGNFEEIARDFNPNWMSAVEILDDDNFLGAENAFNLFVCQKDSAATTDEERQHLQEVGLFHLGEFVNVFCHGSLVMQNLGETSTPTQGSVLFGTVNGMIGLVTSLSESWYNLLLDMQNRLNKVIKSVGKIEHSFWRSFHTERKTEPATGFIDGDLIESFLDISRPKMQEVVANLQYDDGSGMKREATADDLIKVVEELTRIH
# test.protocol: TR-FRET ternary complex formation assay (compound titration)
# Format: binding
# condition.info: in vitro complex formation, 50 nM CDK12–cyclin K, 100 nM DDB1; text and figures; read-out: TR-FRET EC50

Look over these answered cases.
• Cc1nn(C)c(CNc2nc(NCc3ccc(-c4ccccn4)cc3)c3ncn(C(C)C)c3n2)c1S(N)(=O)=O = 101 nM
• Fc1ccc2[nH]c(CNc3nc(N4CCOCC4)nc4c(Br)cnn34)nc2c1F = 12 nM
• O=C(CCn1cnc2ccccc2c1=O)Nc1ccc(Br)cn1 = 303 nM
• COc1ccc(C)cc1N1C[C@@H](C(=O)Nc2nc3ccccc3[nH]2)CC1=O = 178 nM
• CC[C@H](CO)Nc1nc(NCCCCCc2cccc3ccccc23)c2ncn(C(C)C)c2n1 = 182 nM

Now, please, on to the next molecule.
For `CC[C@H](CO)Nc1nc(NCCCc2cccc(F)c2)c2ncn(C(C)C)c2n1` on CDK12–cyclin K and DDB1 (Homo sapiens, UniProt Q16531+Q9NYV4, K965R), measured EC50 was 46 nM

----------
# System: cyclin K–eGFP degradation reporter
# test.protocol: Cyclin K reporter stability analysis (dual-color cyclin K–eGFP reporter)
# Type: cell-based, human
# condition.info: source data sheet correlations; read-out: DC50
Sorting guide: entries reporting DC50 beneath 0.05 µM go in the yes (1) pile, the rest go in the no (0) pile.

Example cases with answers are listed next.
- Cn1cc(-n2cnc3c(NCc4nc5cc(Cl)c(Cl)cc5[nH]4)nc(NCCc4cn[nH]c4)nc32)cn1 [DS57]: no (0)
- CC[C@H](CO)Nc1nc(NCc2ccc(-c3ccncc3)nc2)c2ncn(C(C)C)c2n1 [DS53]: no (0)
- CC[C@H](CO)Nc1nc(NCc2ccc(-c3ccncc3)cc2)c2ncn(C(C)C)c2n1 [DS44]: no (0)
- Cn1cc(-n2cnc3c(NCc4nc5cc(Cl)c(Cl)cc5[nH]4)nc(N4CCOCC4)nc32)cn1 [SR-4835]: yes (1)

Quick check: DC50 of COc1cc2nc(CN3CCc4sccc4C3)[nH]c(=O)c2cc1OC [Z12] under 0.05 µM? no (0)

Quick check: DC50 of CC[C@@H](CO)Nc1nc(NCc2ccc(-c3ccccn3)cc2)c2ncn(C(C)C)c2n1 [DS28, reference compound] under 0.05 µM? yes (1)

----------
# study.system: CDK12–cyclin K and DDB1 (Homo sapiens, UniProt Q16531+Q9NYV4, K965R)
# Construct: His6–CDK12 (a.a. 713–1,052); full-length or beta-propeller B domain deletion (ΔBPB: a.a. 396–705 deleted) constructs of His6–DDB1ΔBPB, StrepII–Avi–DDB1, or His6–Spy–DDB1; made in house; host or cells: Trichoplusia ni High Five insect cells (baculovirus)
# test.protocol: TR-FRET ternary complex formation assay (compound titration)
# Format: binding
# condition.info: in vitro complex formation, 50 nM CDK12–cyclin K, 100 nM DDB1; text and figures; read-out: TR-FRET EC50
property: EC50 (nM)
Write down the numeric answer in nM and omit the unit.

* CC[C@H](CO)Nc1nc(NCCc2ccccc2)c2ncn(C(C)C)c2n1 | 1230
* CC[C@H](CO)Nc1nc(NCc2ccn(-c3cccc(Cl)c3)n2)c2ncn(C(C)C)c2n1 | 44
* CN1CCN(c2nc(NCc3nc4c(F)c(F)ccc4[nH]3)n3ncc(Br)c3n2)CC1 | 28

// EC50 lookup, compound = `Cn1cc(-n2cnc3c(NCc4cc5ccccc5[nH]4)nc(N4CCOCC4)nc32)cn1` , result: 2110

// EC50 lookup, compound = `O=C(CSc1nc2ccccc2[nH]1)Nc1ccc(Cl)cn1` , result: 263

// EC50 lookup, compound = `CC[C@H](CO)Nc1nc(NCc2ccc(-c3ccccn3)c(F)c2)c2ncn(C(C)C)c2n1` , result: 78

// EC50 lookup, compound = `CC[C@H](CO)Nc1nc(NCCCc2ccc(C)c(C)c2)c2ncn(C(C)C)c2n1` , result: 18

----------
# study.system: CDK12–cyclin K and DDB1 (Homo sapiens, UniProt Q16531+Q9NYV4, K965R)
# Construct: His6–CDK12 (a.a. 713–1,052); full-length or beta-propeller B domain deletion (ΔBPB: a.a. 396–705 deleted) constructs of His6–DDB1ΔBPB, StrepII–Avi–DDB1, or His6–Spy–DDB1; made in house; host or cells: Trichoplusia ni High Five insect cells (baculovirus)
# test.protocol: TR-FRET ternary complex formation assay (compound titration)
# Format: binding
# condition.info: in vitro complex formation, 50 nM CDK12–cyclin K, 100 nM DDB1; text and figures; read-out: TR-FRET EC50
property: log10(EC50) (log10 of the value in nM)
Log10 applied to EC50; unit prior to transform: nM.

• CC(C)n1cnc2c(NCc3ccc(-c4ccccn4)cc3)nc(NCCCCCC(=O)N[C@H]3O[C@H](CO)[C@@H](O)[C@H](O)[C@H]3O)nc21 = 2.44
• CCc1cccc(CCCNc2nc(N[C@H](CC)CO)nc3c2ncn3C(C)C)c1 = 1.49
• CC[C@H](CO)Nc1nc(NCc2ccc(-c3cccnc3)cc2)c2ncn(C(C)C)c2n1 = 1.65
• CCOCCOCCNc1nc(N[C@H](CC)CO)nc2c1ncn2C(C)C = 3.51
• CC[C@H](CO)Nc1nc(NCCCc2cccc(O)c2)c2ncn(C(C)C)c2n1 = 2.02
• CC[C@H](CO)Nc1nc(NCCCCCc2ccccc2)c2ncn(C(C)C)c2n1 = 2.45
• CC[C@H](CO)Nc1nc(NCCCc2ccncc2)c2ncn(C(C)C)c2n1 = 2.66
• CC[C@H](CO)Nc1nc(NCc2nc3cc(Cl)c(Cl)cc3[nH]2)c2ncn(-c3cnn(C)c3)c2n1 = 1.28
• Cc1ccc(C(=O)N2CSCC2C(=O)Nc2ncc(C)s2)o1 (centres unmarked) = 2.45
• CC[C@H](CO)Nc1nc(NCc2ccc3ccccc3c2)c2ncn(C(C)C)c2n1 = 1.78

Now, please, on to the next molecule.
For `CC[C@H](CO)Nc1nc(NCc2ccc3cc(O)ccc3c2)c2ncn(C(C)C)c2n1` on CDK12–cyclin K and DDB1 (Homo sapiens, UniProt Q16531+Q9NYV4, K965R), measured log10(EC50) was 3.37
